Target: EP4 (Homo sapiens (Human))
Sequence (P35408 whole entry): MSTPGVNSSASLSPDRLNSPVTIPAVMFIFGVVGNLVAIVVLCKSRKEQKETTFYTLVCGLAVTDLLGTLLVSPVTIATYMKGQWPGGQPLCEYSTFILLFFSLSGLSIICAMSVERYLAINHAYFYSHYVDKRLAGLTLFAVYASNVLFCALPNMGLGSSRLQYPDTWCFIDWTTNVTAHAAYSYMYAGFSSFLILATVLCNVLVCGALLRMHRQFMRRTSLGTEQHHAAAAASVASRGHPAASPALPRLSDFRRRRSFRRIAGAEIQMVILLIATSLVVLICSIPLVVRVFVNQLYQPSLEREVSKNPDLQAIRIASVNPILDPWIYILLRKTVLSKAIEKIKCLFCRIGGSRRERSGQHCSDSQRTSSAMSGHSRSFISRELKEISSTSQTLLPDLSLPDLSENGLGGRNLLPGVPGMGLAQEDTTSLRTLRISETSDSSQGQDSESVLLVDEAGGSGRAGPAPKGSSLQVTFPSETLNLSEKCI
Assay: hEP4 cAMP assay (BT549 breast cancer cells, HTRF cAMP)
Assay type: cell-based
Conditions: antagonistic activity, PGE2 6 nM
Consider the following compounds and their measured pIC50 readings.
Please keep in mind that pIC50 is minus log10 of the molar concentration; only the number is needed.

Solved entries (count: 8):
INSERT INTO results (structure, test_target, value_measured) VALUES
  ('CCOc1cc(-c2cc(NCCc3ccc4ccn(C)c4c3)ncn2)ccc1OCC(=O)O', 'EP4 (Homo sapiens (Human))', 6.61),
  ('CCOc1cc(-c2cc(NCCc3cc4ccccc4c(Cl)c3OC)ncn2)sc1C(=O)O', 'EP4 (Homo sapiens (Human))', 7.96),
  ('CCOc1cc2c(cc1CCNc1cc(-c3ccc(C(=O)O)c(OCC)c3)ncn1)OCCO2', 'EP4 (Homo sapiens (Human))', 6.39),
  ('CCOc1cc(-c2cc(NCCc3cc4c(cc3OC(F)F)OCO4)ncn2)ccc1OCC(=O)O', 'EP4 (Homo sapiens (Human))', 6.57),
  ('CCOc1cc(-c2cc(NCCc3ccc4cc[nH]c4c3)ncn2)sc1-c1noc(=O)[nH]1', 'EP4 (Homo sapiens (Human))', 7.92),
  ('CCOc1cc(-c2cc(NCCc3cc4ccsc4cc3C#N)ncn2)ccc1CC(=O)O', 'EP4 (Homo sapiens (Human))', 7.34),
  ('CCOc1cc(-c2cc(NCCc3cc4c(cc3OC)OCO4)ncn2)ccc1C(=O)O', 'EP4 (Homo sapiens (Human))', 6.15),
  ('CCOc1cc(-c2cc(NCCc3ccc4ccccc4c3F)ncn2)ccc1OCC(=O)O', 'EP4 (Homo sapiens (Human))', 6.92);

stdin: What measured pIC50 goes with CCOc1cc(-c2cc(NCCc3cc4ccccc4c(F)c3OC)ncn2)ccc1C(=O)O ?
stdout: 7.05

stdin: Recorded pIC50 for CCOc1cc(-c2cc(NCCc3cc4ccoc4cc3F)ncn2)ccc1C(=O)O , please?
stdout: 6.53
